Reference source for all entries: patent US20250214977A1

Test system: Phosphorylation of STAT6 in human PBMC (CD19+ B cells)
test method notes: Phosphorylated STAT6 (pSTAT6) flow cytometry assay in human PBMC, IL-4 stimulated
Assay type: cell-based
experimental setup: compound 1 hour, 1 ng/ml IL-4 for 15 minutes, read-out: STAT6 IL4 pSTAT6 assay in PBMC: Average IC50
Let's look at some molecules and their measured IC50.

Please review the following examples before continuing.
CN(C)C(=O)c1cc2ccc(C3=CCCN(C(=O)Cc4c[nH]nn4)C3)cc2[nH]1
> 100 µM
CN(C)C(=O)c1cn2ccc(C3=CCCN(C(=O)CCn4ccnn4)C3)cc2n1
> 100 µM
CN(C)C(=O)c1cc2cc(C3=CCCN(C(=O)CCc4nc5ccccc5s4)C3)ccc2o1
> 100 µM
CN(C)C(=O)c1cc2ccc(C3=CCCN(C(=O)[C@@H]4CCCN4C(=O)c4ccc(F)cc4)C3)cc2[nH]1
> 100 µM

### Prompt Recall the recorded IC50 for CN(C)C(=O)c1cc2c(-c3ccc(O)cc3)cc(C3=CCCN(C(=O)CCn4ccnn4)C3)cc2[nH]1 with Phosphorylation of STAT6 in human PBMC (CD19+ B cells) and state it.
### Response 0.1 to 1 µM

### Prompt Recall the recorded IC50 for CN(C)C(=O)c1cc2ccc(C3=CCCN(C(=O)C4(c5ccccc5)CCC(=O)NC4)C3)cc2[nH]1 (stereo not drawn) with Phosphorylation of STAT6 in human PBMC (CD19+ B cells) and state it.
### Response 10 to 100 µM

### Prompt Recall the recorded IC50 for CN(C)C(=O)c1cc2cc(C3=CCCN(C(=O)CCn4ccnn4)C3)cc(N3CCNCC3)c2o1 with Phosphorylation of STAT6 in human PBMC (CD19+ B cells) and state it.
### Response > 100 µM

### Prompt Recall the recorded IC50 for CCC(=O)N1Cc2ccccc2CC1C(=O)N1CCC=C(c2ccc3oc(C(=O)N(C)C)cc3c2)C1 (stereo not drawn) [Example I-188] with Phosphorylation of STAT6 in human PBMC (CD19+ B cells) and state it.
### Response > 100 µM

### Prompt Recall the recorded IC50 for CN(C)C(=O)c1cc2cc(C3=CCCN(C(=O)CCn4ccnn4)C3)cc(-c3ccc(O)cc3)c2o1 with Phosphorylation of STAT6 in human PBMC (CD19+ B cells) and state it.
### Response 0.1 to 1 µM

### Prompt Recall the recorded IC50 for CN(C)C(=O)c1cc2ccc(C3=CCCN(C(=O)c4cn(C5CC5)nn4)C3)cc2[nH]1 with Phosphorylation of STAT6 in human PBMC (CD19+ B cells) and state it.
### Response 10 to 100 µM

### Prompt Recall the recorded IC50 for CN(C)C(=O)c1cc2ccc(C3=CCCN(C(=O)c4ccc(N5CCOCC5)c(F)c4)C3)cc2[nH]1 with Phosphorylation of STAT6 in human PBMC (CD19+ B cells) and state it.
### Response > 100 µM

### Prompt Recall the recorded IC50 for CN(C)C(=O)c1cc2ccc(C3=CCCN(C(=O)C4(O)CCCC4)C3)cc2[nH]1 with Phosphorylation of STAT6 in human PBMC (CD19+ B cells) and state it.
### Response 10 to 100 µM

### Prompt Recall the recorded IC50 for CN(C)C(=O)c1nc2ccc(C3=CCCN(C(=O)CCn4ccnn4)C3)cc2s1 with Phosphorylation of STAT6 in human PBMC (CD19+ B cells) and state it.
### Response 10 to 100 µM

### Prompt Recall the recorded IC50 for CC(=O)NCc1ccccc1-c1ccccc1CC(=O)N1CCC=C(c2ccc3oc(C(=O)N(C)C)cc3c2)C1 with Phosphorylation of STAT6 in human PBMC (CD19+ B cells) and state it.
### Response > 100 µM

### Prompt Recall the recorded IC50 for CN(C)C(=O)c1cc2cc(C3=CCCN(C(=O)CCc4ccccn4)C3)ccc2[nH]1 with Phosphorylation of STAT6 in human PBMC (CD19+ B cells) and state it.
### Response > 100 µM
